The entries below come with measured MIC Values of Compounds, Streptococcus pneumoniae values attached.
# Tested on: Streptococcus pneumoniae (PISP: ATCC 49619)
# ASSAY_NOTES: In vitro antibacterial activity, agar two times dilution method, MIC
# Assay type: cell-based
# MEASUREMENT_CONTEXT: agar dilution; PISP ATCC 49619
QUANTITY_MEASURED: MIC Values of Compounds, Streptococcus pneumoniae (µg/mL)

COMPOUND | ASSAY_SYSTEM | REPORTED_MEASUREMENT
CCN(CC)Cc1c(O)cc2c(c1O)-c1cc(ccc1O)C1NC(=O)C3NC(=O)C(CC(N)=O)NC(=O)C(NC(=O)C(CC(C)C)NC)C(O)c4ccc(c(Cl)c4)Oc4cc3cc(c4OC3OC(CO)C(O)C(O)C3OC3CC(C)(NCc4ccccc4Br)C(O)C(C)O3)Oc3ccc(cc3Cl)C(OC3CC(C)(N)C(O)C(C)O3)C(NC1=O)C(=O)NC2C(=O)O (centres unmarked) [Compound I6] | Streptococcus pneumoniae (PISP: ATCC 49619) | 0.25
CCCCNCc1c(O)cc2c(c1O)-c1cc(ccc1O)C1NC(=O)C3NC(=O)C(CC(N)=O)NC(=O)C(NC(=O)C(CC(C)C)NC)C(O)c4ccc(c(Cl)c4)Oc4cc3cc(c4OC3OC(CO)C(O)C(O)C3OC3CC(C)(NCc4ccccc4Br)C(O)C(C)O3)Oc3ccc(cc3Cl)C(OC3CC(C)(N)C(O)C(C)O3)C(NC1=O)C(=O)NC2C(=O)O (centres unmarked) [Compound I7] | Streptococcus pneumoniae (PISP: ATCC 49619) | 0.5
